All figures here come from patent US10988459B2.

Biological target: human RIP1 kinase domain (2-375) (Homo sapiens (Human), UniProt Q13546)
Sequence (Q13546 2-375): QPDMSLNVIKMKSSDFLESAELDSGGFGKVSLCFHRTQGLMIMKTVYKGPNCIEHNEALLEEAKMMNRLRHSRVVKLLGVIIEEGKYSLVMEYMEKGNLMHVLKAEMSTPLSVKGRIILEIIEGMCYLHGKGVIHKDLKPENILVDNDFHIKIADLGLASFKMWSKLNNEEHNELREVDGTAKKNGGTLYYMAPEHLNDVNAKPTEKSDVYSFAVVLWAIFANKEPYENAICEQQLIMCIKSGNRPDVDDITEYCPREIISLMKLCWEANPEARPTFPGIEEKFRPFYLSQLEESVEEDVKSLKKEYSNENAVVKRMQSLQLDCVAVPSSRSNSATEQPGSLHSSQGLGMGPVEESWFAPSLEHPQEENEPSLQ
Assay: biochemical
Format: biochemical
Conditions: tight-binding apparent inhibition constant; human RIP1 kinase domain (2-375) 50 nM, 50 uM ATP, 2 hours; read-out: Ki
parameter: Ki (nM)

Example entries begin here.
{"columns": ["compound", "measured target", "Ki [nM]"],
 "data": [
  ["O=C(N[C@H]1CCc2cc(F)cc(F)c2NC1=O)c1nc2n(n1)CCO[C@@H]2c1ccccc1 [Example 639]", "human RIP1 kinase domain (2-375) (Homo sapiens (Human), UniProt Q13546)", 420],
  ["Cn1cc(C2CCCc3nc(C(=O)N[C@H]4CCc5cc(F)cc(F)c5NC4=O)nn32)cn1 (stereo partly shown) [Example 433]", "human RIP1 kinase domain (2-375) (Homo sapiens (Human), UniProt Q13546)", 143]
]}

[A] Cc1cc2n(n1)CC[C@H](NC(=O)c1ncc3cnn(-c4ccccn4)c3n1)C(=O)N2C [Example 632]
[B] CN1C(=O)[C@@H](NC(=O)c2nc3cccc(-c4cc(F)ccc4F)n3n2)CCn2nccc21 [Example 382]
Field: lower Ki | Options: A / B Answer with the label corresponding to your selection.
B
(B: 13.1 nM, A: 3100 nM)
